The values you see were collected from the NIST ThermoML archive (doi:10.1016/j.jct.2006.06.008).

# Settings: 293.15 K; 101 kPa; Liquid
Measured Attribute: speed of sound (m/s)

Smi | speed of sound (m/s)
CCCO | 1223
C1CCCCC1 | 1279
C1CCCC1 | 1232
CCCCO | 1257
CCO | 1162

* * *

# Settings: 303.15 K; 101 kPa; Liquid
Measured Attribute: mass density (kg/m3)

Smi | Measure Unit | mass density
CCO | kg/m3 | 781.15
C1CCCC1 | kg/m3 | 734.54
CCCO | kg/m3 | 795.55
C1CCCCC1 | kg/m3 | 769.19
CCCCO | kg/m3 | 801.8

* * *

# Settings: 293.15 K; 101 kPa; Liquid
Measured Attribute: mass density (kg/m3)

Compound | Measure Unit | Measured Value
CCO [ethanol] | kg/m3 | 789.75
C1CCCC1 [cyclopentane] | kg/m3 | 744.52
CCCO [propan-1-ol] | kg/m3 | 803.59
C1CCCCC1 [cyclohexane] | kg/m3 | 778.62
CCCCO [butan-1-ol] | kg/m3 | 809.5

* * *

# Settings: 303.15 K; 101 kPa; Liquid
Measured Attribute: viscosity (mPa·s)

Smi | Measured Attribute | Measured Value
CCO | viscosity | 0.987
C1CCCC1 | viscosity | 0.394
CCCCO | viscosity | 2.255

a = CCCO
b = C1CCCCC1
Rank a against b by their viscosity values and give the higher one. Refer to your chosen item by its label in the answer. a
